Sourced from patent US20160244529A1

Target: T1, human Ig1,2 TrkA (recombinant D4-D5 domain of human TrkA receptor) (human, UniProt P04629 191-392)
T1 construct: also called hTrkA Ig1,2; TrkA Ig1,2
T1 chain: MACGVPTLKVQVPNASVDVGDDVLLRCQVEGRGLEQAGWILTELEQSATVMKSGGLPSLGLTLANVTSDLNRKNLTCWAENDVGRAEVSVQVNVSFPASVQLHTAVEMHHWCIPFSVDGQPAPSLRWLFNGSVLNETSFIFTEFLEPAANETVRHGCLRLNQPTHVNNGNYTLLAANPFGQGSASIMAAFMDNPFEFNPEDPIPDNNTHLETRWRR
Test: SPR (Biacore X-100); scFv immobilised on CM5 chip, human Ig1,2 TrkA injected
Description: The antibodies were also shown to be specific for hTrkA and mTrkA by relative binding to the BIACore sensor chips coated with the appropriate antigen. Antibodies were immobilized by ammine coupling to Biosensor CM5 sensorchips (Pharmacia) according to the manufacturers instructions. […] Data were analysed by Bioevaluation Software (see results on Table II and Table III). […]
quantity.kind: koff (s⁻¹)
Just the number please, in s⁻¹, no unit attached.

Qu. Supply measured koff of anti-TrkA scFv CRB0036 (scFv, From mSPLINT selection) scFv: DIVMTQAAPSVPVTPGESVSISCRSSKSLLHSSGITSLYWYLQRPGQSPQLPIYRMSSLASGVPDRFSVSGSGTAFTLRISRVEAEDVGVYYCMQHLEYPLTFGAGTKLELKRSGGSTSGSGKPGSGEGSSGTQVQLQQSGAELLKPGASVKISCKATGYTFSNYWIEWVKQRPGHGLEWIGEILPGSGSAHYSEKFKDKATFTADTSSNTAYMQLSSLTSEDSAVYFCTRSPPNPGYWGQGTSVTVSS in your reply.
Ans. 3.75e-05
